Biological target: CCK-2R (Rattus norvegicus)
Construct: The CCK-2R expressing rat pancreatic tumor cells AR4-2J; host or cells: AR4-2J rat pancreatic tumor cells
Sequence (P30553 1-452): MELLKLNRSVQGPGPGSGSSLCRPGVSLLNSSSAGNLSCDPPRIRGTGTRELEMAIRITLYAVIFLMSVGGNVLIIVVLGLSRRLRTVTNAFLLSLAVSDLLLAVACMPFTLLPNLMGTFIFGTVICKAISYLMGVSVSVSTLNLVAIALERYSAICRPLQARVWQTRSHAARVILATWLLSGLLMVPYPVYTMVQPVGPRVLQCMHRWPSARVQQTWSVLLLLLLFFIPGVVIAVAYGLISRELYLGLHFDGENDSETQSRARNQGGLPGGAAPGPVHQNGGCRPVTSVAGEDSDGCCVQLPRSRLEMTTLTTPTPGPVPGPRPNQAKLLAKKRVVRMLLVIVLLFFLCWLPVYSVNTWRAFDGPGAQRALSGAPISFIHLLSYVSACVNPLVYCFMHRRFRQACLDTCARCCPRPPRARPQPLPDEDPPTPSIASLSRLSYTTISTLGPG
Test: Determination of IC50: CCK-2R affinity on AR4-2J cells, competition with [^177Lu]Lu-DOTA-PP-F11N
Type: binding
Settings: AR4-2J cells; references ^natLu-labeled, other peptides without chelator; read-out: IC50 [nM] (n = 3)
Starred links: 1 amine or outer side, 2 acyl side, 3 side chain; linkers in the order of their positions; H or OH if unused. Non-standard residues stand in square brackets, D forms with d. Residues, ends and D or L forms follow the SMILES beside them. *: point of attachment. DOTA = O=C(O)CN1CCN(CC(=O)O)CCN(CC(=O)*)CCN(CC(=O)O)CC1; d(γGlu) = O=C(O)[C@@H](CCC(=O)[*:2])N[*:1]; 1Nal = N[C@@H](Cc1cccc2ccccc12)C(=O)O; NMeNle = CCCC[C@H](NC)C(=O)O; Nle = CCCC[C@H](N)C(=O)O
Flag rule - IC50 less than 6 nM flags 1.0; the remaining entries get 0.0.

{"molecule": "CCCC[C@@H](C(=O)N[C@@H](CC(=O)O)C(=O)N[C@@H](Cc1ccccc1)C(N)=O)N(C)C(=O)[C@@H](N)Cc1c[nH]c2ccccc12 [H-Trp-(N-Me)Nle-Asp-Phe-NH2] (H-W[NMeNle]DF-NH2)", "target": "CCK-2R (Rattus norvegicus)", "group.label": 1.0}

Could you please tell me whether IC50 recorded for CCCC[C@H](NC(=O)[C@@H](N)Cc1c[nH]c2ccccc12)C(=O)N[C@@H](CC(=O)O)C(=O)N[C@@H](Cc1cccc2ccccc12)C(N)=O [H-Trp-Nle-Asp-1-Nal-NH2] (H-W[Nle]D[1Nal]-NH2) is less than 6 nM? 0.0

Could you please tell me whether IC50 recorded for CCCC[C@@H](C(=O)N[C@@H](CC(=O)O)C(=O)N[C@@H](Cc1cccc2ccccc12)C(N)=O)N(C)C(=O)[C@H](Cc1c[nH]c2ccccc12)NC(=O)CNC(=O)[C@H](Cc1ccc(O)cc1)NC(=O)[C@H](C)NC(=O)CC[C@@H](NC(=O)CN1CCN(CC(=O)O)CCN(CC(=O)O)CCN(CC(=O)O)CC1)C(=O)O [DOTA-γ-MGS5, reference compound] ({DOTA-d(γGlu)}-AYGW[NMeNle]D[1Nal]-NH2) is less than 6 nM? 1.0

Could you please tell me whether IC50 recorded for CCCC[C@@H](C(=O)N[C@@H](CC(=O)O)C(=O)N[C@@H](Cc1c[nH]c2ccccc12)C(N)=O)N(C)C(=O)[C@@H](N)Cc1c[nH]c2ccccc12 [H-Trp-(N-Me)Nle-Asp-Trp-NH2] (H-W[NMeNle]DW-NH2) is less than 6 nM? 0.0

Could you please tell me whether IC50 recorded for CCCC[C@@H](C(=O)N[C@@H](CC(=O)O)C(=O)N[C@@H](Cc1ccc(O)cc1)C(N)=O)N(C)C(=O)[C@@H](N)Cc1c[nH]c2ccccc12 [H-Trp-(N-Me)Nle-Asp-Tyr-NH2] (H-W[NMeNle]DY-NH2) is less than 6 nM? 1.0

----------
Biological target: Human serum albumin (HSA) (Homo sapiens, UniProt P02768)
Construct: purchased Daicel, Tokyo, Japan H13H-2433
Sequence (P02768 25-609): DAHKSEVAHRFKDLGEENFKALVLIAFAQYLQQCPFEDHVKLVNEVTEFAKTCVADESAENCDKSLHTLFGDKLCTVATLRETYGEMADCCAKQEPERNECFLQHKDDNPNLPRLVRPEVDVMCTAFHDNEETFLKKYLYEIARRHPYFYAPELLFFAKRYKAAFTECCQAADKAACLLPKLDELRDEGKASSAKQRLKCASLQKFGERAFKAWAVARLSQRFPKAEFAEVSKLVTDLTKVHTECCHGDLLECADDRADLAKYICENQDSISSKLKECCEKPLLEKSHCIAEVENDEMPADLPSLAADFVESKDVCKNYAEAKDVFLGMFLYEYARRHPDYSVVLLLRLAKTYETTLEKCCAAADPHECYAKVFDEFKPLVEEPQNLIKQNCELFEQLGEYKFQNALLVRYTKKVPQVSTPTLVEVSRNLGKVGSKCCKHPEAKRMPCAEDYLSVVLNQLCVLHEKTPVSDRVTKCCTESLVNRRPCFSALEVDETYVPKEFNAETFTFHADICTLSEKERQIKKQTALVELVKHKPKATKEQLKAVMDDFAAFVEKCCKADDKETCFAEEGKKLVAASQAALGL
Assay: Determination of HSA binding on a Chiralpak HSA column
Type: in vitro ADME
Conditions: Tab. 8; metal not stated (Fig. 18: ^natLu)
quantity.kind: HSA binding [%] (%)
Express your answer in %, writing the number without its unit.

For CCCC[C@@H](C(=O)N[C@@H](CC(=O)O)C(=O)N[C@@H](Cc1cccc2ccccc12)C(N)=O)N(C)C(=O)[C@H](Cc1c[nH]c2ccccc12)NC(=O)CCOCCOCCOCCOCCNC(=O)CC[C@@H](NC(=O)CCOCCOCCOCCOCCOCCNC(=O)CC[C@@H](NC(=O)[C@@H](CNC(=O)c1ccc([Si](F)(C(C)(C)C)C(C)(C)C)cc1)NC(=O)CN1CCN(CC(=O)O)CCN(CC(=O)O)CCN(CC(=O)O)CC1)C(=O)O)C(=O)O [DOTA-rhCCK-68] on Human serum albumin (HSA) (Homo sapiens, UniProt P02768), measured HSA binding [%] was 91.2

----------
Assay: n-Octanol-PBS distribution coefficient (logD7.4)
Type: physicochemical
Conditions: pH = 7.4, ^177Lu-labeled
Starred links: 1 amine or outer side, 2 acyl side, 3 side chain; linkers in the order of their positions; H or OH if unused. Non-standard residues stand in square brackets, D forms with d. Residues, ends and D or L forms follow the SMILES beside them. *: point of attachment. Benzoyl(4-SiFtBu2) = CC(C)(C)[Si](F)(c1ccc(C(=O)*)cc1)C(C)(C)C; DOTA = O=C(O)CN1CCN(CC(=O)O)CCN(CC(=O)*)CCN(CC(=O)O)CC1; PEG12 = NCCOCCOCCOCCOCCOCCOCCOCCOCCOCCOCCOCCOCCC(=O)O; d(γGlu) = O=C(O)[C@@H](CCC(=O)[*:2])N[*:1]; PEG8 = NCCOCCOCCOCCOCCOCCOCCOCCOCCC(=O)O; 1Nal = N[C@@H](Cc1cccc2ccccc12)C(=O)O; PEG6 = NCCOCCOCCOCCOCCOCCOCCC(=O)O; PEG5 = NCCOCCOCCOCCOCCOCCC(=O)O; NMeNle = CCCC[C@H](NC)C(=O)O; PEG4 = NCCOCCOCCOCCOCCC(=O)O; dDap = NC[C@@H](N)C(=O)O
Decide by logD7.4 (n ≥ 5), ^177Lu-labeled: equal to or exceeding -2 means yes (1), less means no (0).

As a guide, the following entries are already answered.
{"compound": "CCCC[C@H](NC(=O)[C@H](Cc1c[nH]c2ccccc12)NC(=O)CNC(=O)[C@H](Cc1ccc(O)cc1)NC(=O)[C@H](C)NC(=O)CC[C@@H](NC(=O)CC[C@@H](NC(=O)CC[C@@H](NC(=O)CC[C@@H](NC(=O)CC[C@@H](NC(=O)CC[C@@H](NC(=O)[C@@H](CNC(=O)c1ccc([Si](F)(C(C)(C)C)C(C)(C)C)cc1)NC(=O)CN1CCN(CC(=O)O)CCN(CC(=O)O)CCN(CC(=O)O)CC1)C(=O)O)C(=O)O)C(=O)O)C(=O)O)C(=O)O)C(=O)O)C(=O)N[C@@H](CC(=O)O)C(=O)N[C@@H](Cc1ccccc1)C(N)=O", "group.label": "no (0)"}
{"compound": "CCCC[C@@H](C(=O)N[C@@H](CC(=O)O)C(=O)N[C@@H](Cc1cccc2ccccc12)C(N)=O)N(C)C(=O)[C@H](Cc1c[nH]c2ccccc12)NC(=O)CCOCCOCCOCCOCCNC(=O)CC[C@@H](NC(=O)CCOCCOCCOCCOCCOCCNC(=O)[C@@H](CNC(=O)c1ccc([Si](F)(C(C)(C)C)C(C)(C)C)cc1)NC(=O)CN1CCN(CC(=O)O)CCN(CC(=O)O)CCN(CC(=O)O)CC1)C(=O)O [DOTA-rhCCK-67] ({DOTA}-[dDap](Benzoyl(4-SiFtBu2))[PEG5][d(γGlu)][PEG4]W[NMeNle]D[1Nal]-NH2)", "group.label": "yes (1)"}
{"compound": "CCCC[C@@H](C(=O)N[C@@H](CC(=O)O)C(=O)N[C@@H](Cc1cccc2ccccc12)C(N)=O)N(C)C(=O)[C@H](Cc1c[nH]c2ccccc12)NC(=O)CNC(=O)[C@H](Cc1ccc(O)cc1)NC(=O)[C@H](C)NC(=O)CNC(=O)CN1CCN(CC(=O)O)CCN(CC(=O)O)CCN(CC(=O)O)CC1 [DOTA-CCK-57] ({DOTA}-GAYGW[NMeNle]D[1Nal]-NH2)", "group.label": "yes (1)"}
{"compound": "CCCC[C@@H](C(=O)N[C@@H](CC(=O)O)C(=O)N[C@@H](Cc1cccc2ccccc12)C(N)=O)N(C)C(=O)[C@H](Cc1c[nH]c2ccccc12)NC(=O)CCOCCOCCOCCOCCNC(=O)[C@@H](CCC(=O)O)NC(=O)CN1CCN(CC(=O)O)CCN(CC(=O)O)CCN(CC(=O)O)CC1 [DOTA-CCK-66.2] ({DOTA}-[dE][PEG4]W[NMeNle]D[1Nal]-NH2)", "group.label": "no (0)"}
{"compound": "CCCC[C@@H](C(=O)N[C@@H](CC(=O)O)C(=O)N[C@@H](Cc1cccc2ccccc12)C(N)=O)N(C)C(=O)[C@H](Cc1c[nH]c2ccccc12)NC(=O)CCOCCOCCOCCOCCNC(=O)CC[C@@H](NC(=O)CCOCCOCCOCCOCCOCCOCCOCCOCCNC(=O)[C@@H](CNC(=O)c1ccc([Si](F)(C(C)(C)C)C(C)(C)C)cc1)NC(=O)CN1CCN(CC(=O)O)CCN(CC(=O)O)CCN(CC(=O)O)CC1)C(=O)O [DOTA-rhCCK-73] ({DOTA}-[dDap](Benzoyl(4-SiFtBu2))[PEG8][d(γGlu)][PEG4]W[NMeNle]D[1Nal]-NH2)", "group.label": "yes (1)"}
{"compound": "CCCC[C@@H](C(=O)N[C@@H](CC(=O)O)C(=O)N[C@@H](Cc1cccc2ccccc12)C(N)=O)N(C)C(=O)[C@H](Cc1c[nH]c2ccccc12)NC(=O)CCOCCOCCOCCOCCNC(=O)CC[C@@H](NC(=O)CCOCCOCCOCCOCCOCCNC(=O)CC[C@@H](NC(=O)[C@@H](CNC(=O)c1ccc([Si](F)(C(C)(C)C)C(C)(C)C)cc1)NC(=O)CN1CCN(CC(=O)O)CCN(CC(=O)O)CCN(CC(=O)O)CC1)C(=O)O)C(=O)O", "group.label": "yes (1)"}

Check this compound for logD7.4 (n ≥ 5), ^177Lu-labeled at or above -2: CCCC[C@@H](C(=O)N[C@@H](CC(=O)O)C(=O)N[C@@H](Cc1cccc2ccccc12)C(N)=O)N(C)C(=O)[C@H](Cc1c[nH]c2ccccc12)NC(=O)CCOCCOCCOCCOCCNC(=O)CC[C@@H](NC(=O)CCOCCOCCOCCOCCOCCOCCOCCOCCNC(=O)CC[C@@H](NC(=O)[C@@H](CNC(=O)c1cc(C(=O)O)cc([Si](F)(C(C)(C)C)C(C)(C)C)c1)NC(=O)CN1CCN(CC(=O)O)CCN(CC(=O)O)CCN(CC(=O)O)CC1)C(=O)O)C(=O)O no (0)

Check this compound for logD7.4 (n ≥ 5), ^177Lu-labeled at or above -2: CCCC[C@@H](C(=O)N[C@@H](CC(=O)O)C(=O)N[C@@H](Cc1cccc2ccccc12)C(N)=O)N(C)C(=O)[C@H](Cc1c[nH]c2ccccc12)NC(=O)CCOCCOCCOCCOCCOCCOCCOCCOCCOCCOCCOCCOCCNC(=O)CC[C@@H](NC(=O)CN1CCN(CC(=O)O)CCN(CC(=O)O)CCN(CC(=O)O)CC1)C(=O)O [DOTA-CCK-81] ({DOTA-d(γGlu)-PEG12}-W[NMeNle]D[1Nal]-NH2) no (0)

Check this compound for logD7.4 (n ≥ 5), ^177Lu-labeled at or above -2: CCCC[C@@H](C(=O)N[C@@H](CC(=O)O)C(=O)N[C@@H](Cc1cccc2ccccc12)C(N)=O)N(C)C(=O)[C@H](Cc1c[nH]c2ccccc12)NC(=O)CCOCCOCCOCCOCCOCCOCCNC(=O)CC[C@@H](NC(=O)CN1CCN(CC(=O)O)CCN(CC(=O)O)CCN(CC(=O)O)CC1)C(=O)O [DOTA-CCK-79] ({DOTA-d(γGlu)-PEG6}-W[NMeNle]D[1Nal]-NH2) no (0)
